Data credit: patent US7094909B2

log10(Ki) reference
target: HIV-1 protease (Q7S mutant form) (Human immunodeficiency virus type 1 group M subtype B, UniProt P04585, Q495S); construct: made in house; experiment: HIV-1 Protease RET assay; assay type: biochemical; details: Ave. Ki (nM), RET assay, Q7S enzyme, Morrison tight binding fit
Hey, these are logged values: log10 of Ki, nM being the unit before logging.

Some solved cases for reference:
compound	quantitativeResult
C=CCCOC(=O)N[C@@H](Cc1ccccc1)[C@H](O)C(=O)N1CSC(C)(C)[C@H]1C(=O)NCc1ccccc1C [Example B14]	0.43
C=CCNC(=O)[C@H]1N(C(=O)[C@@H](O)[C@H](Cc2ccccc2)NC(=O)CSc2nc[nH]n2)CSC1(C)C [Example B25]	1.32
Cc1c(O)cccc1C(=O)N[C@@H](Cc1ccccc1)[C@H](O)C(=O)N1CSC(C)(C)[C@H]1C(=O)N[C@H]1CCOc2c(F)cc(F)cc21 [Example A55]	-0.68
Cc1ccccc1CNC(=O)[C@H]1N(C(=O)[C@@H](O)[C@H](Cc2ccccc2)NC(=O)N2CC[C@@H](O)C2)CSC1(C)C [Example B3]	0.40
C=CCNC(=O)[C@H]1N(C(=O)[C@@H](O)[C@H](Cc2ccccc2)NC(=O)c2cccc3[nH]ncc23)CSC1(C)C [Example B24]	0.92
CC(C)=CCNC(=O)[C@@H]1CC(F)(F)CN1C(=O)[C@@H](O)[C@H](Cc1ccccc1)NC(=O)c1cccc(O)c1C [Example C9]	0.80

Q) # input compound: Cc1c(O)cccc1C(=O)N[C@@H](Cc1ccccc1)[C@H](O)C(=O)N1COC(C)(C)[C@H]1C(=O)N[C@@H]1C=CCCC1 [Example C29] ; wanted: its log10(Ki)
A) -0.74

Q) Param item = CC1(C)SCN(C(=O)[C@@H](O)[C@H](Cc2ccccc2)NC(=O)NCc2c(F)cccc2F)[C@@H]1C(=O)NCc1c(F)cccc1F [Example B49] ; retrieve measured log10(Ki).
A) 2.08

Q) Returns the measured log10(Ki) for the input compound. Input: Cc1c(O)cccc1C(=O)N[C@@H](Cc1ccccc1)[C@H](O)C(=O)N1CSC(C)(C)[C@H]1C(=O)NCc1oc2ccccc2c1C [Example A54]
A) 0.65

Q) Name the reported log10(Ki) value associated with the compound Cc1c(O)cccc1C(=O)N[C@@H](Cc1ccccc1)[C@H](O)C(=O)N1CSC(C)(C)[C@H]1C(=O)NC[C@@H]1CCCO1 [Example A37]
A) 0.57

Q) Item Cc1c(O)cccc1C(=O)N[C@@H](Cc1ccccc1)[C@H](O)C(=O)N1CSC(C)(C)[C@H]1C(=O)NCc1n[nH]c2ccccc12 [Example A44] has what recorded log10(Ki)?
A) 0.15

* * *

Tested on: HIV-1 (HIV-1 RF, HIV-1 NL4-3) in CEM-SS / MT-2 cells
Assay: Cytopathic effect (CPE) inhibition assay (XTT/MTT dye reduction)
Assay type: cell-based
Conditions: Human immunodeficiency virus 1, NL43, unit inferred; read-out: EC50
Description: T-cell lines, CEM-SS, and MT-2, and viruses HIV-1 RF and HIV-1 NL4-3 (pNL4-3) were obtained from the National Institutes of Health (AIDS Research and Reference Reagent Program, Bethesda, Md.). Cytopathic Effect (CPE) Inhibition Assays […]
propertyMeasured: EC50 (µM)
Only the number, expressed in µM, is required.

compound	unit	EC50
Cc1c(O)cccc1C(=O)N[C@@H](Cc1ccccc1)[C@H](O)C(=O)N1CSC(C)(C)[C@H]1C(=O)N1CCc2ccccc2C1	µM	1.18
Cc1ccccc1CNC(=O)C1N(C(=O)[C@@H](O)[C@H](Cc2ccccc2)NC(=O)CSc2nccs2)CSC1(C)C (stereo partly shown)	µM	1.55

Q) Item C#CCOC(=O)N[C@@H](Cc1ccccc1)[C@H](O)C(=O)N1CSC(C)(C)[C@H]1C(=O)NCCC has what recorded EC50?
A) 1.35

Q) Data request, read-out EC50, for CCOC(=O)N[C@@H](Cc1ccccc1)[C@H](O)C(=O)N1CSC(C)(C)[C@H]1C(=O)NCc1ccccc1C
A) 1.64

Q) Data request, read-out EC50, for Cc1ccccc1CNC(=O)[C@H]1N(C(=O)[C@@H](O)[C@H](Cc2ccccc2)NC(=O)COc2c(C)cc(Cl)cc2C)CSC1(C)C
A) 1.11

Q) I am curious: what EC50 value has been reported for Cc1ccccc1CNC(=O)[C@H]1N(C(=O)[C@@H](O)[C@H](Cc2ccccc2)NC(=O)[C@@H](NC(=O)COc2cccc(N(C)C)c2)C(C)C)CSC1(C)C ?
A) 0.014

Q) I am curious: what EC50 value has been reported for Cc1ccccc1CNC(=O)[C@H]1C2CCC(C2)N1C(=O)[C@@H](O)[C@H](Cc1ccccc1)NC(=O)c1cccc(O)c1C (stereo partly shown) ?
A) 4

Q) What measured EC50 goes with Cc1cccc(C)c1OCC(=O)N[C@@H](Cc1ccccc1)[C@H](O)C(=O)N1CSC(C)(C)[C@H]1C(=O)NCc1c(F)cccc1F ?
A) 1.88

Q) Fill in: EC50 of CC1(C)SCN(C(=O)[C@@H](O)[C@H](Cc2ccccc2)NC(=O)c2cccc3c2CCN3)[C@@H]1C(=O)N[C@@H]1CCOc2ccccc21 is ___
A) 1.96

Q) EC50 lookup needed for Cc1ccccc1CCC(=O)[C@H]1N(C(=O)[C@@H](O)[C@H](Cc2ccccc2)NC(=O)O[C@H]2CCOC2)CSC1(C)C , thanks.
A) 0.573

Q) What measured EC50 goes with Cc1ccccc1CNC(=O)[C@H]1N(C(=O)[C@@H](O)[C@H](Cc2ccccc2)NC(=O)OCc2ccccc2)CSC1(C)C ?
A) 4.22

Q) Quick one: EC50 for Cc1cccc(C)c1OCC(=O)N[C@@H](Cc1ccccc1)[C@H](O)C(=O)N1CSC(C)(C)[C@H]1C(=O)NCc1ccccc1C(F)(F)F ?
A) 1.95

Q) Look up EC50: Cc1c(O)cccc1C(=O)N[C@@H](Cc1ccccc1)[C@H](O)C(=O)N1CSC(C)(C)[C@H]1C(=O)N[C@H]1CC1c1ccccc1 (stereo partly shown)
A) 1.33

Q) # lookup: EC50 of CC1(C)SCN(C(=O)[C@@H](O)[C@H](Cc2ccccc2)NC(=O)CSc2nc[nH]n2)[C@@H]1C(=O)N[C@@H]1C=CCCC1
A) 1.28

Q) For Cc1ccccc1CNC(=O)[C@H]1N(C(=O)[C@@H](O)C(Cc2ccccc2)NC(=O)CNc2c(C)cccc2C)CSC1(C)C (stereo partly shown) , what is its reported EC50?
A) 1.22

Q) I am curious: what EC50 value has been reported for CC1(C)SCN(C(=O)[C@@H](O)[C@H](Cc2ccccc2)NC(=O)CSc2nc[nH]n2)[C@@H]1C(=O)N[C@H]1CCc2ccccc21 ?
A) 1.23

Q) What EC50 value was documented for this compound, CC(=O)Oc1cccc(C(=O)N[C@@H](CSc2ccccc2)[C@H](O)CN2C[C@H]3CCCC[C@H]3C[C@H]2C(=O)NCc2ccccc2C)c1C ?
A) 0.672

Q) Tell me the measured EC50 of CC1(C)SCN(C(=O)[C@@H](O)[C@H](Cc2ccccc2)NC(=O)[C@@H]2CCCO2)[C@@H]1C(=O)N[C@H]1CCOc2ccccc21 , please.
A) 1.25

* * *

Reported Ki values for a set of compounds
Molecular target: HIV-1 protease (Q7S mutant form) (Human immunodeficiency virus type 1 group M subtype B, UniProt P04585, Q495S)
Construct: made in house
Assay: HIV-1 Protease RET assay
Format: biochemical
Settings: Ave. Ki (nM), RET assay, Q7S enzyme, Morrison tight binding fit
Experimental: Ki's for the inhibitors of HIV-1 protease were determined using a resonance energy transfer (RET) assay. […] This enzyme is first partially purified as inclusion bodies from cell lysate. […] The commercially available peptide substrate (Molecular Probes Cat. # H-2930) RE(EDANS)SQNYPIVQK(DABCYL)R is used to assess activity and Ki's. This peptide is cleaved quantitatively by HIV-1 Pr at the Tyr-Pro bond. […]
Just the number in nM, nothing appended.

Use these answered entries as a reference point.
structure	propertyMeasured	quantitativeResult
Cc1c(O)cccc1C(=O)N[C@@H](Cc1ccccc1)[C@H](O)C(=O)N1CSC(C)(C)[C@H]1C(=O)N[C@@H]1CCCc2ccccc21	Ki	2.2
Cc1c(O)cccc1C(=O)N[C@@H](Cc1ccccc1)[C@H](O)C(=O)N1CSC(C)(C)[C@H]1C(=O)NCc1nccs1	Ki	0.17
Cc1ccccc1CNC(=O)[C@@H]1C[C@@H]2CCCC[C@@H]2CN1C(=O)[C@@H](O)[C@H](Cc1ccccc1)NC(=O)c1cccc(O)c1C	Ki	150
Cc1c(O)cccc1C(=O)N[C@@H](Cc1ccccc1)[C@H](O)C(=O)N1CSC(C)(C)[C@H]1C(=O)NCC1CCCCC1	Ki	3.4
C#CCOC(=O)N[C@@H](Cc1ccccc1)[C@H](O)C(=O)N1CSC(C)(C)[C@H]1C(=O)NCc1ccccc1Cl	Ki	0.83

Now look at this one.
Q) I would be grateful if you could share the reported Ki for CC1(C)SCN(C(=O)[C@@H](O)[C@H](Cc2ccccc2)NC(=O)CSc2nc[nH]n2)[C@@H]1C(=O)N[C@H]1CCOc2ccccc21 .
A) 4.7
